Sourced from paper PMC9352680

# system-tested: T1, PUF4 RNA-binding domain (Saccharomyces cerevisiae, UniProt P25339 537-888)
# T1 sequence: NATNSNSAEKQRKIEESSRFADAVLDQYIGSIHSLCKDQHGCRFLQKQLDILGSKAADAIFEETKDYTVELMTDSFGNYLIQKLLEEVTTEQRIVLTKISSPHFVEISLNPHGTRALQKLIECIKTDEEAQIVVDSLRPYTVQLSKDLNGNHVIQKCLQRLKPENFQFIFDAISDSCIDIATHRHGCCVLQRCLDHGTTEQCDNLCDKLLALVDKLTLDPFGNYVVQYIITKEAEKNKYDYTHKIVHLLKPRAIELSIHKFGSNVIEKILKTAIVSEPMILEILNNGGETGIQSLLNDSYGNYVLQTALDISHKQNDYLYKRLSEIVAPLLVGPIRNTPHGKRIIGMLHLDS
# assay-explanation: Mg; RNA-MaP; 20 mM Na-HEPES pH 7.4, 30 mM KOAc, 0.75 mM MgCl2, 0.1% Tween-20, 5% glycerol, 0.1 mg/mL BSA, 2 mM DTT; 25 C; 0.0125-409.6 nM protein
# conditions-used: tags: N-His6-TEV cleaved; C-SNAP kept, Cy3B-labelled; label: tethered on chip by stalled RNA polymerase
Flag rule - Kd less than 1 nM flags 1.0; the remaining entries get 0.0.

# count of solved cases: 2
INSERT INTO measurements (binder, category) VALUES
  ('Ie_S2_P5E.1_K5.1_C5.1_H5.1_A5.1_[+5CTCTC]_F5.1_T5.1 (ssRNA) RNA: UUUGAUUAAUAUGAUAUCGUUCUUUCUUGUAUCUCUCUAUUAUUCUUUCUCGAUAUCAUAUUAAUCUUU', 0.0),
  ('Ic_S2_P5E.1_K5.1_C5.1_H5.1_A5.1_[T5C]_[A7C]_F5.1_[T9C]_[A10G]_T5.1 (ssRNA) RNA: UUUGAUUAAUAUGAUAUCGUUCUUUCUUGUACUCUCGUUCUUUCUCGAUAUCAUAUUAAUCUUU', 0.0);

Q) Below 1 nM on Kd? Entry UCUCUUUGUACUAUAUCUCUU (ssRNA) [Ic_S1_P4E.1_K4.1_C4.1_H4.1_A4.1_[T5C]_[A6T]_[T7A]_F4.1_T4.1]
A) 0.0
